Let's go through some Ki measurements on human CB-1 cannabinoid receptor (Homo sapiens (Human), UniProt P21554) together.
Sequence (P21554 whole entry): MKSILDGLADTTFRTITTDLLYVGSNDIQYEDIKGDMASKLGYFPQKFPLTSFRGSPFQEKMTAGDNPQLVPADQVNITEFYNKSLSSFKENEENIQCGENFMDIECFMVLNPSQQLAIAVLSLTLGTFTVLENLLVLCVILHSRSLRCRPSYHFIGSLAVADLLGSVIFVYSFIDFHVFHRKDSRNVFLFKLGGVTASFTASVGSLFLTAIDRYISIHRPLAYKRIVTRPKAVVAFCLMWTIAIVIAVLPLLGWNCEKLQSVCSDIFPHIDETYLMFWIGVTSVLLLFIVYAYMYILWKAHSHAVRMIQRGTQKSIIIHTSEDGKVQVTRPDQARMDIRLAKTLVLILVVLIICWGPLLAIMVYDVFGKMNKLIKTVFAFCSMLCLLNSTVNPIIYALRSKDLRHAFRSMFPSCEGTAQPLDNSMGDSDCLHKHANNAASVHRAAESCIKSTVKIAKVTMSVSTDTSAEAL

| COMPOUND | TARGET_OF_ASSAY | Ki |
| --- | --- | --- |
| Cc1cc(-c2c(-c3ccccc3)nc(N)n3c(=O)n(CCN4CCCC4c4cccs4)nc23)cc(C)n1 (stereo not shown) [Example 3-1] | human CB-1 cannabinoid receptor (Homo sapiens (Human), UniProt P21554) | 29.2 µM |
| Cc1cc(-c2c(-c3ccccc3)nc(N)n3c(=O)n(Cc4ncoc4C)nc23)cc(C)n1 [Example 1-22] | human CB-1 cannabinoid receptor (Homo sapiens (Human), UniProt P21554) | 29.6 µM |
| Cc1cc(-c2c(-c3ccc(F)cc3)nc(N)n3c(=O)n(Cc4nccn4C)nc23)cc(CO)n1 [Example 1-50] | human CB-1 cannabinoid receptor (Homo sapiens (Human), UniProt P21554) | 86.1 µM |
| Cc1cc(-c2c(-c3ccc(F)cc3)nc(N)n3c(=O)n(Cc4ncoc4C)nc23)cc(CO)n1 [Example 1-51] | human CB-1 cannabinoid receptor (Homo sapiens (Human), UniProt P21554) | 80.3 µM |
| Cc1cc(-c2c(-c3ccccc3)nc(N)n3c(=O)n(Cc4cc(C)on4)nc23)cc(CO)n1 [Example 1-43] | human CB-1 cannabinoid receptor (Homo sapiens (Human), UniProt P21554) | 86.9 µM |
| COc1cc(-c2c(-c3ccc(F)cc3)nc(N)n3c(=O)n(Cc4ncoc4C)nc23)cc(CO)n1 [Example 1-64] | human CB-1 cannabinoid receptor (Homo sapiens (Human), UniProt P21554) | 40.8 µM |
| Cc1cc(-c2c(-c3ccccc3)nc(N)n3c(=O)n(C[C@H]4CC(F)(F)CN4C)nc23)cc(C)n1 [Example 2-14] | human CB-1 cannabinoid receptor (Homo sapiens (Human), UniProt P21554) | 36.4 µM |

* * *

target: human adenosine A1 receptor (Homo sapiens (Human)); test: Adenosine receptor inhibition binding assay, [3H]DPCPX, A1 receptor membranes; conditions: 1 nM [3H]DPCPX, 25° C., 1 h; Ki from IC50 by Cheng-Prusoff
Sequence (P30542 whole entry): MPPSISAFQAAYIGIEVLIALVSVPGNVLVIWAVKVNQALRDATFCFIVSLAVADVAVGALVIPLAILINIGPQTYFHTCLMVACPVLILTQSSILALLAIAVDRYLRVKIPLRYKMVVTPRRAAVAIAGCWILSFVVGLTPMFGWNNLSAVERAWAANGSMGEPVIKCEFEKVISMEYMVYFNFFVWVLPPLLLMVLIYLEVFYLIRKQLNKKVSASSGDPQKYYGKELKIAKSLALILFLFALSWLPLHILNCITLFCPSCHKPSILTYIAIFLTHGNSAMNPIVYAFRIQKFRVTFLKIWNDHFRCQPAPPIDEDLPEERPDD

| MOLECULE | COMPARISON_SIGN | A1 pKi |
| --- | --- | --- |
| Cc1cc(-c2c(-c3ccccc3)nc(N)n3c(=O)n(Cc4nonc4C)nc23)cc(C)n1 | = | 7.2 |
| COc1cc(-c2c(-c3ccc(F)cc3)nc(N)n3c(=O)n(Cc4nccn4C)nc23)cc(CO)n1 | = | 7.1 |
| Cc1cc(-c2c(-c3ccccc3)nc(N)n3c(=O)n(C[C@H]4C[C@H](F)CN4)nc23)cc(C)n1 | = | 6.4 |
| Cc1cc(-c2c(-c3ccccc3)nc(N)n3c(=O)n(CCc4nnn[nH]4)nc23)cc(C)n1 | < | 5.4 |
| COc1cc(-c2c(-c3ccc(F)cc3)nc(N)n3c(=O)n(Cc4ncoc4C)nc23)cc(CO)n1 | = | 6.5 |
| COCCN1CCC[C@H]1Cn1nc2c(-c3cc(C)nc(C)c3)c(-c3ccccc3)nc(N)n2c1=O | = | 6.1 |
| Cc1cc(-c2c(-c3ccccc3)nc(N)n3c(=O)n(CC4CCCN4C)nc23)cc(C)n1 (stereo not drawn) | = | 6.2 |
| COc1cccc(-c2nn(Cc3ccccc3)cc2Cn2nc3c(-c4cc(C)nc(C)c4)c(-c4ccccc4)nc(N)n3c2=O)c1 | = | 7.1 |
| Cc1cc(-c2c(-c3ccccc3)nc(N)n3c(=O)n(C[C@H]4CCCO4)nc23)cc(CO)n1 | = | 6.4 |
